Recorded Slope normalized repl2 values for a group of compounds are listed next.
# study system: WT PfMDH (Plasmodium falciparum)
# Construct: The full-length WT PfMDH gene was cloned into pETM-13; made in house; host or cells: E. coli Rosetta 2 (DE3) pLysS
# test protocol: Activity screening of 4DT / 4-phenylthiazol-2-amine derivatives (oxidation of malate, absorbance at 340 nm)
# Type: biochemical
# test settings: 500 µM compound, slope relative to control = 1, replicate 2
result type: Slope normalized repl2

smiles data	study system	numeric value
Cc1ccc(-c2csc(N)n2)cc1C	WT PfMDH (Plasmodium falciparum)	0.4735
CC(C)(C)OC(=O)CNC(=O)c1cc(-c2cccs2)on1	WT PfMDH (Plasmodium falciparum)	0.1879
Cc1c(CO)cnn1-c1ccccc1	WT PfMDH (Plasmodium falciparum)	0.7957
Nc1nc(-c2ccc(F)cc2)cs1	WT PfMDH (Plasmodium falciparum)	0.4515
Nc1nc(-c2ccc(Cl)c(Cl)c2)cs1	WT PfMDH (Plasmodium falciparum)	0.208
O=C(O)c1cc(-c2cccs2)on1	WT PfMDH (Plasmodium falciparum)	0.5422
NCc1ccc(-c2csnn2)cc1	WT PfMDH (Plasmodium falciparum)	0.472
O=C(O)c1nc(-c2ccccc2)cs1	WT PfMDH (Plasmodium falciparum)	0.6632
Nc1cc(-c2ccccc2)[nH]n1	WT PfMDH (Plasmodium falciparum)	0.4232
Nc1nc(-c2ccc(F)c(F)c2)cs1	WT PfMDH (Plasmodium falciparum)	0.591

---

Reported Slope repl1 values for the following compounds.
# study system: WT PfMDH (Plasmodium falciparum, UniProt Q6VVP7)
# Construct: The full-length WT PfMDH gene was cloned into pETM-13; made in house; host or cells: E. coli Rosetta 2 (DE3) pLysS
# Sequence (Q6VVP7 entry or part of it): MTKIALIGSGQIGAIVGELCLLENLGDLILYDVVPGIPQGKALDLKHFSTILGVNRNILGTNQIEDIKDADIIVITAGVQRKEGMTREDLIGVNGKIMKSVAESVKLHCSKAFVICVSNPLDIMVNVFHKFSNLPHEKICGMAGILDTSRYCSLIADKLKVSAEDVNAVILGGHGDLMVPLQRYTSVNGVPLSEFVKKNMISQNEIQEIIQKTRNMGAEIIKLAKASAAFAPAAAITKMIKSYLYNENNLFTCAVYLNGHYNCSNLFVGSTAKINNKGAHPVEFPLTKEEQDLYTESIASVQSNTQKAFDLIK
# test protocol: Activity screening of 4DT / 4-phenylthiazol-2-amine derivatives (oxidation of malate, absorbance at 340 nm)
# Type: biochemical
# test settings: 500 µM compound, linear regression slope of absorbance 340 nm vs time, replicate 1
result type: Slope repl1

smiles data	result type	numeric value
NCc1ccc(-c2csnn2)cc1	Slope repl1	0.02772
Nc1cc(-c2ccccc2)[nH]n1	Slope repl1	0.02092
Nc1nc(-c2ccc(Cl)c(Cl)c2)cs1	Slope repl1	0.008711
Nc1nc(-c2ccc(F)c(F)c2)cs1	Slope repl1	0.02136
Cc1ccc(-c2csc(N)n2)cc1C	Slope repl1	0.01855
O=C(O)c1nc(-c2ccccc2)cs1	Slope repl1	0.02124
O=C(O)c1cc(-c2cccs2)on1	Slope repl1	0.0217
Nc1nc(-c2ccc(F)cc2)cs1	Slope repl1	0.01901
Cc1c(CO)cnn1-c1ccccc1	Slope repl1	0.02662
CC(C)(C)OC(=O)CNC(=O)c1cc(-c2cccs2)on1	Slope repl1	0.007266

---

// reported TSA melting curve raw signal for each item listed
# study system: PfMDH (Plasmodium falciparum)
# Construct: The full-length WT PfMDH gene was cloned into pETM-13; made in house; host or cells: E. coli Rosetta 2 (DE3) pLysS
# Sequence (Q6VVP7 entry or part of it): as above
# test protocol: Thermal shift assay (TSA)
# Type: binding
# test settings: Temperature 44.5; triplicate columns
result type: TSA melting curve raw signal

smiles data	numeric value
Nc1nc(-c2ccc(F)c(F)c2)cs1	3882.684
Nc1nc(-c2ccccc2)cs1	3706.596
CC(C)c1ccc(-c2csc(N)n2)cc1	7337.446

Source listed as paper PMC8355244.
